Test system: human APOE RNA
Test: Activity in APOE C57BL/6NTac-Apoeem7250 knock-in mice, single ICV bolus, 16 weeks (Example 12)
Type: in vivo
Conditions: cortex; single ICV bolus 300 μg; 16 weeks post treatment; normalized to mouse Ppia
Strand notation (5' to 3'): a small letter for the sugar, then the base; units joined by * are phosphorothioate-linked, units joined directly phosphodiester-linked; [ ] holds rarer units or linkages, { } end groups; capitals alone tell only the bases. [ms] = mesyl phosphoramidate linkage; e = 2'-O-(2-methoxyethyl) (MOE); [5mC] = 5-methylcytosine; d = 2'-deoxy (DNA)
Recorded APOE RNA (% control) Cortex by entry

Substance | Measured on | APOE RNA (% control) Cortex
1681021: 5-10-5 MOE gapmer GGTGAATCTTTATTAAACTA, linkages zsssszsssszzssssssz (antisense eG[ms]eG*eT*eG*eA*dA[ms]dT*d[5mC]*dT*dT*dT[ms]dA[ms]dT*dT*dA*eA*eA*e[5mC]*eT[ms]eA) [compound 1681021] | human APOE RNA | 91
1693040: 5-10-5 MOE gapmer CTTGGTGAATCTTTATTAAA, linkages sssosszzzssssssosss (antisense e[5mC]*eT*eT*eGeG*dT*dG[ms]dA[ms]dA[ms]dT*d[5mC]*dT*dT*dT*dA*eTeT*eA*eA*eA) [compound 1693040] | human APOE RNA | 92
1693061: 5-10-5 MOE gapmer TTGGTGAATCTTTATTAAAC, linkages sssoszzzsssszzsssss (antisense eT*eT*eG*eGeT*dG[ms]dA[ms]dA[ms]dT*d[5mC]*dT*dT*dT[ms]dA[ms]dT*eT*eA*eA*eA*e[5mC]) [compound 1693061] | human APOE RNA | 91

---

Catalogue of APOE RNA (% UTC) readings, one per entry.
System: human APOE RNA
Assay: Dose-dependent inhibition of human APOE RNA in HepG2 cells, electroporation, 50,000 cells per well, RT-PCR normalized to GAPDH (Example 4, Tables 8-10)
Type: cell-based
Conditions: 5 nM; HepG2, electroporation, 24-hour treatment
Strand notation (5' to 3'): a small letter for the sugar, then the base; units joined by * are phosphorothioate-linked, units joined directly phosphodiester-linked; [ ] holds rarer units or linkages, { } end groups; capitals alone tell only the bases. [ms] = mesyl phosphoramidate linkage; k = constrained ethyl (cEt); [5mC] = 5-methylcytosine; d = 2'-deoxy (DNA)
Measure name: APOE RNA (% UTC)

Substance | Measure name | Result number
1746801 (k[5mC]*dT[ms]dT[ms]kG*kG*dT[ms]dG[ms]dA[ms]dA[ms]dT*d[5mC]*dT*dT*dT*dA[ms]dT*kT*dA[ms]kA*kA; antisense) [Compound 1746801] | APOE RNA (% UTC) | 93
1746787 (k[5mC]*kT*dT[ms]dG[ms]dG[ms]kT*dG[ms]dA[ms]dA[ms]dT*d[5mC]*dT*dT*dT*dA[ms]dT*kT*kA*dA[ms]kA; antisense) [Compound 1746787] | APOE RNA (% UTC) | 148
1746786 (k[5mC]*kT*dT[ms]dG[ms]kG*dT[ms]dG[ms]dA[ms]dA[ms]dT*d[5mC]*dT*dT*dT*dA[ms]dT*kT*kA*dA[ms]kA; antisense) [Compound 1746786] | APOE RNA (% UTC) | 85
1746791 (k[5mC]*dT[ms]dT[ms]kG*kG*dT[ms]dG[ms]dA[ms]dA[ms]dT*d[5mC]*dT*dT*dT*dA[ms]dT*kT*kA*dA[ms]kA; antisense) [Compound 1746791] | APOE RNA (% UTC) | 88
1746790 (k[5mC]*dT[ms]kT*dG[ms]dG[ms]kT*dG[ms]dA[ms]dA[ms]dT*d[5mC]*dT*dT*dT*dA[ms]dT*kT*kA*dA[ms]kA; antisense) [Compound 1746790] | APOE RNA (% UTC) | 104
1746812 (k[5mC]*dT[ms]dT[ms]dG[ms]kG*kT*dG[ms]dA[ms]dA[ms]dT*d[5mC]*dT*dT*dT*dA[ms]dT*dT[ms]kA*kA*kA; antisense) [Compound 1746812] | APOE RNA (% UTC) | 105
1746805 (k[5mC]*kT*dT[ms]kG*dG[ms]dT[ms]dG[ms]dA[ms]dA[ms]dT*d[5mC]*dT*dT*dT*dA[ms]dT*dT[ms]kA*kA*kA; antisense) [Compound 1746805] | APOE RNA (% UTC) | 95
1746794 (k[5mC]*kT*kT*dG[ms]dG[ms]dT[ms]dG[ms]dA[ms]dA[ms]dT*d[5mC]*dT*dT*dT*dA[ms]dT*kT*dA[ms]kA*kA; antisense) [Compound 1746794] | APOE RNA (% UTC) | 119

---

Recorded measurements of APOE RNA (% control) Cortex, one per entry
System: human APOE RNA
Experiment: Activity in APOE C57BL/6NTac-Apoeem7250 knock-in mice, single ICV bolus, 4 weeks (Example 10)
Type: in vivo
Details: Cortex; C57BL/6NTac-Apoeem7250 knock-in mice, single ICV bolus 300 μg, 4 weeks (Table 22)
Strand notation (5' to 3'): a small letter for the sugar, then the base; units joined by * are phosphorothioate-linked, units joined directly phosphodiester-linked; [ ] holds rarer units or linkages, { } end groups; capitals alone tell only the bases. [ms] = mesyl phosphoramidate linkage; e = 2'-O-(2-methoxyethyl) (MOE); k = constrained ethyl (cEt); [5mC] = 5-methylcytosine; d = 2'-deoxy (DNA)

Substance | Measured on | APOE RNA (% control) Cortex
1736529 (e[5mC]*eT*eT*eG*eG*eTdG[ms]dA[ms]dA[ms]dT*d[5mC]*dT*dT*dT*dA[ms]dT*kT*kA*eA*eA; antisense) [Compound 1736529] | human APOE RNA | 51
1736533 (e[5mC]*eT*eT*eG*eGeT*dG[ms]dA[ms]dA[ms]dT*d[5mC]*dT*dT*dT*dA[ms]dT*kT*eA*eA*eA; antisense) [Compound 1736533] | human APOE RNA | 34
1736493 (e[5mC]*eTeT*eG*eG*eT*dG[ms]dA[ms]dA[ms]dT*d[5mC]*dT*dT*dT*dA[ms]dT*kT*kA*eA*eA; antisense) [Compound 1736493] | human APOE RNA | 47

---

Listed below: APOE RNA (% UTC) values for each entry.
System: human APOE RNA
Assay: Dose-dependent inhibition of human APOE RNA in HepG2 cells, electroporation, 24 hours (Example 6)
Assay type: cell-based
Conditions: 33 nM
Strand notation (5' to 3'): a small letter for the sugar, then the base; units joined by * are phosphorothioate-linked, units joined directly phosphodiester-linked; [ ] holds rarer units or linkages, { } end groups; capitals alone tell only the bases. [ms] = mesyl phosphoramidate linkage; e = 2'-O-(2-methoxyethyl) (MOE); k = constrained ethyl (cEt); [5mC] = 5-methylcytosine; d = 2'-deoxy (DNA)

Substance | APOE RNA (% UTC)
1693101: 6-10-4 MOE gapmer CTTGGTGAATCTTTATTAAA, linkages sssssozzzssssszssss (e[5mC]*eT*eT*eG*eG*eTdG[ms]dA[ms]dA[ms]dT*d[5mC]*dT*dT*dT*dA[ms]dT*eT*eA*eA*eA) [compound 1693101] | 120 % UTC
1736528 (e[5mC]*eT*eT*eG*eG*eTdG[ms]dA[ms]dA[ms]dT*d[5mC]*dT*dT*dT*dA[ms]dT*kT*eA*eA*eA; antisense) [Compound 1736528] | 107 % UTC
1736520: 6-10-4 MOE gapmer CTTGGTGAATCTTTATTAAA, linkages sossoszzzssssssssss (e[5mC]*eTeT*eG*eGeT*dG[ms]dA[ms]dA[ms]dT*d[5mC]*dT*dT*dT*dA*dT*eT*eA*eA*eA) [compound 1736520] | 92 % UTC
1736535 (e[5mC]*eT*eT*eG*eGkT*dG[ms]dA[ms]dA[ms]dT*d[5mC]*dT*dT*dT*dA[ms]dT*eT*eA*eA*eA; antisense) [Compound 1736535] | 99 % UTC
1736513 (e[5mC]*eTeT*eG*eG*kT*dG[ms]dA[ms]dA[ms]dT*d[5mC]*dT*dT*dT*dA[ms]dT*eT*eA*eA*eA; antisense) [Compound 1736513] | 114 % UTC
1736531 (e[5mC]*eT*eT*eG*eG*kTdG[ms]dA[ms]dA[ms]dT*d[5mC]*dT*dT*dT*dA[ms]dT*eT*eA*eA*eA; antisense) [Compound 1736531] | 89 % UTC
1736525: 6-10-4 MOE gapmer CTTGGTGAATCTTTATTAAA, linkages sooosszzsssssssssss (e[5mC]*eTeTeGeG*eT*dG[ms]dA[ms]dA*dT*d[5mC]*dT*dT*dT*dA*dT*eT*eA*eA*eA) [compound 1736525] | 106 % UTC
1652902: 6-10-4 MOE gapmer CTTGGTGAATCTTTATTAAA, linkages sooooossssssssssoss (antisense e[5mC]*eTeTeGeGeTdG*dA*dA*dT*d[5mC]*dT*dT*dT*dA*dT*eTeA*eA*eA) [compound 1652902] | 54 % UTC
1736527: 6-10-4 MOE gapmer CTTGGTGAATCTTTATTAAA, linkages sssooozzsssssssssss (e[5mC]*eT*eT*eGeGeTdG[ms]dA[ms]dA*dT*d[5mC]*dT*dT*dT*dA*dT*eT*eA*eA*eA) [compound 1736527] | 96 % UTC
1736526: 6-10-4 MOE gapmer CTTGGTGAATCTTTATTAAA, linkages ssoooszzsssssssssss (e[5mC]*eT*eTeGeGeT*dG[ms]dA[ms]dA*dT*d[5mC]*dT*dT*dT*dA*dT*eT*eA*eA*eA) [compound 1736526] | 100 % UTC
1736536 (e[5mC]*eT*eT*eG*kGkT*dG[ms]dA[ms]dA[ms]dT*d[5mC]*dT*dT*dT*dA[ms]dT*eT*eA*eA*eA; antisense) [Compound 1736536] | 79 % UTC
1736529 (e[5mC]*eT*eT*eG*eG*eTdG[ms]dA[ms]dA[ms]dT*d[5mC]*dT*dT*dT*dA[ms]dT*kT*kA*eA*eA; antisense) [Compound 1736529] | 92 % UTC
1736493 (e[5mC]*eTeT*eG*eG*eT*dG[ms]dA[ms]dA[ms]dT*d[5mC]*dT*dT*dT*dA[ms]dT*kT*kA*eA*eA; antisense) [Compound 1736493] | 67 % UTC
1736533 (e[5mC]*eT*eT*eG*eGeT*dG[ms]dA[ms]dA[ms]dT*d[5mC]*dT*dT*dT*dA[ms]dT*kT*eA*eA*eA; antisense) [Compound 1736533] | 78 % UTC
1736524: 6-10-4 MOE gapmer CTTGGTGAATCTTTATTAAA, linkages sssooozzssssssssoss (e[5mC]*eT*eT*eGeGeTdG[ms]dA[ms]dA*dT*d[5mC]*dT*dT*dT*dA*dT*eTeA*eA*eA) [compound 1736524] | 89 % UTC
